SUBJECT_OF_TEST: human HER3 endogenously expressed on human cancer cells (SK-Br-3, BT-474, MCF7) (human, UniProt P21860 20-1342)
EXPERIMENT_NOTES: cell-based or functional assay
Below, each entry is listed alongside its reported SK-Br-3 pHER3 IC50.
Give the quantity in pM, number only.

MOR13661 (antibody, human IgG1, lambda, V domains shown) VH: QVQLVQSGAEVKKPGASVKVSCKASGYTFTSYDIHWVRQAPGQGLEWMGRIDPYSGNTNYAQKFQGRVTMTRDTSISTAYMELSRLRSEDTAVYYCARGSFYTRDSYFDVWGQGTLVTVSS VL: DIALTQPASVSGSPGQSITISCTGTSSDVGTYNQVSWYQQHPGKAPKLMIYGVSKRPSGVSNRFSGSKSGNTASLTISGLQAEDEADYYCGSRDSWAHVFGGGTKLTVLG; 421

# input // returns reported SK-Br-3 pHER3 IC50 for input MOR13654 (antibody, human IgG1, lambda, V domains shown, Tested as IgG) VH: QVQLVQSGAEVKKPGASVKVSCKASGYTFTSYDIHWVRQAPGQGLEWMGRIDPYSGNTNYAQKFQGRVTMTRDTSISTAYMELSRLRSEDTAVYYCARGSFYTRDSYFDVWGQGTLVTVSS VL: DIALTQPASVSGSPGQSITISCTGTSSDVGTYNQVSWYQQHPGKAPKLMIYGVSKRPSGVSNRFSGSKSGNTASLTISGLQAEDEADYYCQSRGEYRPGWVFGGGTKLTVLG
# output 182

# input Another: MOR12605 (antibody, human IgG1, kappa, V domains shown, Tested as IgG) VH: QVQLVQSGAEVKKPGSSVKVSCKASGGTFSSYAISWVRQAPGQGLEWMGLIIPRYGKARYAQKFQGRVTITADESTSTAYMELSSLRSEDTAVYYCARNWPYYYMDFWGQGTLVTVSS VL: DIVLTQSPATLSLSPGERATLSCRASQNIVFNLAWYQQKPGQAPRLLIYDASNRATGVPARFSGSGSGTDFTLTISSLEPEDFAVYYCQQFRRKSNTFGQGTKVEIKR
# output 7
